Origin of values: patent US20230287125A1

- Target or system: T1, human PD-L1 over-expressed on CHOK1 cells (human, UniProt Q9NZQ7 19-290)
- T1 construct: whole, on cells; also called PDL1-CHOK1 cells
- T1 sequence (Q9NZQ7 19-290): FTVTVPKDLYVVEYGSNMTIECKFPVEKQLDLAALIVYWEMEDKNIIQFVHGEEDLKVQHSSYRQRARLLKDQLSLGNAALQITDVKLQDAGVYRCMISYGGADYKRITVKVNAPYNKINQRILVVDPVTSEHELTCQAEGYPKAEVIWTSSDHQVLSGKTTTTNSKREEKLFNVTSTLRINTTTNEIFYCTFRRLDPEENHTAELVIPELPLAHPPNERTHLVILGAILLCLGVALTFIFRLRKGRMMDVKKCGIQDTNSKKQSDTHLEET
- Test: flow cytometry (MFI) on PDL1-CHOK1 cells; lower right panel
Measured parameter: EC50 (pM)
Supply the numeric figure in pM, leaving out any unit text.

Measured EC50 of Hu89C10H8-12 (antibody, V domains shown, humanized) VH: EVQLVESGGGLVKPGGSLRLSCAASGFTFSNYWMTWIRQAPGKGLEWVASITNTGSSTFYPDSVKGRFTISRDNAKSSLYLQMNSLRAEDTAVYYCTRDTTIAPFDYWGQGTMVTVSS VL: DIQMTQSPSSLSASVGDRVTITCKASQNLNEYLNWYQQKPGKAPKRLIYKTNTLQAGIPSRFSGSGSGIDYTLTISSLQPEDFATYYCSQYNSGNTFGQGTKLEIK : 130

Measured EC50 of Hu89C10H8-11 (antibody, V domains shown, humanized) VH: EVQLVESGGGLVKPGGSLRLSCAASGFTFSNYWMTWIRQAPGKGLEWVASITNTGSSTFYPDSVKGRFTISRDNAKNSLYLQMNSLRAEDTAVYYCTRDTTIAPFDYWGQGTMVTVSS VL: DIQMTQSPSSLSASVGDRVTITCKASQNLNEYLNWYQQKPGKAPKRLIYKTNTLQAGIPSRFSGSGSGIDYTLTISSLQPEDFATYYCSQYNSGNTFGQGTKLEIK : 151

Measured EC50 of Hu89C10H8-4 (antibody, V domains shown, humanized) VH: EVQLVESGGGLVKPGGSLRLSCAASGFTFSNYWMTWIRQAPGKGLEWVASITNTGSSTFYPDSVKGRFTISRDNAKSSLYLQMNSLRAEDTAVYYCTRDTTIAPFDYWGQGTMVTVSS VL: DIQMTQSPSSLSASVGDRVTITCKASQNLNEYLNWYQQKPGKAPKRLIYKTNTLQAGVPSRFSGSGSGTDYTLTISSLQPEDFATYYCSQYNSGNTFGQGTKLEIK : 127

Measured EC50 of Hu89C10H8-7 (antibody, V domains shown, humanized) VH: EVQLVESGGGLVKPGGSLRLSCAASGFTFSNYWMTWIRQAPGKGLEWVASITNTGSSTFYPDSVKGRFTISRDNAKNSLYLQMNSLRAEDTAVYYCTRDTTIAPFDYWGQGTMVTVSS VL: DIQMTQSPSSLSASVGDRVTITCKASQNLNEYLNWYQQKPGKAPKRLIYKTNTLQAGIPSRFSGSGSGTDYTLTISSLQPEDFATYYCSQYNSGNTFGQGTKLEIK : 100
